Test system: MS2 coat protein
Assay: apparent KD of MS2 coat protein; designed switch direction (-1 OFF switch, 1 ON switch): -1; higher = weaker reporter binding
Settings: Eterna round: R95; input ligand: microRNA oligo, concentration not stated
Overview of recorded apparent KD of MS2 coat protein for various sequences
Could you give me the number in µM? Just the number is fine.

# annotated cases, reported apparent KD of MS2 coat protein shown
1) UAUUAACAAGCUAGAUCUUACAUGAGGAUCACCCAUGUGCUCGUCUUAUAAGGUACUGUGACGAAAGUCACGGUACC [Sensor 3, v1 - 77] (puzzle: Sensor v3, turn-off variant 1) ... 0.149
2) GAUUGACAUGAGGAUCACCCAUGUGAGGAUAUCGGCCGGACCGUGCCGGCUUCCGUCGCGAGAAGGCGCAUAGG [Exclusion 1 V40] (puzzle: Exclusion 1) ... 0.032
3) CCGGAUAUGCAGGAUAUCGUAACGGAAACGUUACGAGAAGGGUAUACAUGAGGAUCACCCAUGUGUCCUACCGG [Mat - Exclusion 6 - Eli Mod - D86] (puzzle: Exclusion 6) ... 0.0211

Q: Returns the measured apparent KD of MS2 coat protein for the input sequence. Input: AAUAAGCUAGGAUAUACAUGAGGAUCACCCAUGUCCACGCUCUGGAGGGCUGAAUGAUGUAGAAGGAGCAGUGG [Zabier] (puzzle: Exclusion 3)
Result: 0.0192

Q: Now this one: UUUAAUUUUUUUUUUUUACAAGCUUUUUGCUCGUCUUAUACAUGAGGAUCACCCAUGUGAGUGGAAGGUAAAUUAUC [JMF 69] (puzzle: Sensor v3, turn-off variant 2)
Result: 0.018

====

Tested on: MS2 coat protein
Test: apparent KD of MS2 coat protein; designed switch direction (-1 OFF switch, 1 ON switch): -1; higher = weaker reporter binding
Settings: input ligand: FMN 200 uM
property-measured: apparent KD of MS2 coat protein (nM)
Could you give me the number in nM? Just the number is fine.

# annotated cases, reported apparent KD of MS2 coat protein shown
1) CAAAGAUAAGGAUAUUGAAGGUUCGACAUGAGGAUCACCCAUGUUAUGUUGGAAAAGGGACAAGAAGGUAUGAAAC [salish99_ex5_r4_211] (Eterna round: R97, puzzle: Exclusion 5) ... 28.2
2) AUAAUGUGAGGAUAUCACGGCCCGGUAAAUCCGGUAAACGAUGAGAAGGCACAUGAGGAUCACCCAUGUUCCUG [EX4 A.2] (Eterna round: R97, puzzle: Exclusion 4) ... 45.7
3) AAUUCGGCAGGAUAUACAUGAGGAUCACCCAUGUAAAUUUUUCGUUUAACUUGAAUGUGUAGAAGGGCCAUUAA [Ex3 #63] (Eterna round: R97, puzzle: Exclusion 3) ... 27.6
4) GCGCCAUCGUGAGAUGGCGUAAUUACAUGAGGAUCACCCAUGUAGGAUAUCGAUUGCUUUGCAGUCGAGAAGGGCGUGAUAAUU [JL ENG3 3.70] (Eterna round: R96, puzzle: Exclusion NG 3) ... 77.7

Proceed to the following item.
Q: Returns the measured apparent KD of MS2 coat protein for the input sequence. Input: AAACUCUAAGUCAGGAUAUGGCAACGCUAAGGCGACCAGAAGGGACUUGAGGAUCACCCAAGUACCGCUUGUGG [Orardi] (Eterna round: R97, puzzle: Brourd's mod of Exclusion 4)
Result: 409

// data source = the supplement of paper PMC9170038
